assay: Fluorescence spectrum in TE buffer of dyes selected from live cell imaging; type: physicochemical; conditions: dye 10 μM in TE buffer
Measured Endpoint: SPECTRUM EM (nm)

> print(dat)
                             chemical.smiles  observed.measurement
 1  COc1ccc2c(ccc(/C=C/c3cc(Br)ccc3OC)[n+]2C)c1                   540
 2   CCOc1cccc(C=Cc2ccc3cc(OC)ccc3[n+]2C)c1O                   460
 3       COc1ccc(/C=C/c2ccc3ccccc3[n+]2C)cc1                   480
 4      C[n+]1c(/C=C/c2ccc(Br)s2)ccc2ccccc21                   470
 5  C[n+]1c(/C=C/c2c[nH]c3ccccc23)ccc2ccccc21                   550
 6  COc1ccc2c(ccc(/C=C/c3ccccc3OCC(=O)O)[n+]2C)c1                   520
 7  COc1ccc(Oc2cccc(/C=C/c3ccc4ccccc4[n+]3C)c2)cc1                   450
 8  COc1ccc2c(ccc(C=Cc3ccc(-c4cccs4)s3)[n+]2C)c1                   610
 9      COc1ccc2c(ccc(/C=C/c3ccco3)[n+]2C)c1                   490
10       C[n+]1ccc(C=Cc2cccc(F)c2F)c2ccccc21                   460
